MEASURED_ON: human ERα (Homo sapiens)
Construct: made in house; host or cells: E. coli (crude lysate)
TEST_DETAILS: Competition with [3H]-17β-estradiol for binding to ERα
CONDITION_NOTES: ligand binding domain of human ERα in E. coli crude lysate, 2 nM [3H]-17β-estradiol, 5-15 hours at room temperature; read-out: ERα (nM) IC50
Description: Representative examples of the invention were evaluated for their ability to compete with 17β-estradiol for both ERα and ERβ. This test procedure provides the methodology for one to determine whether a particular compound binds to the estrogen receptor (and is therefore “estrogenic”) and whether there is selectivity for ERα or ERβ. […] After between 5 and 15 hours at room temperature, the plates were washed with DPBS/1 mM EDTA and bound radioactivity determined by liquid scintillation counting. […]
ASSAY_READOUT: IC50 (nM)
Quick reminder: number only, in nM, skip the unit.

Observe how each entry below is paired with its result.
{"columns": ["SMILES_REPRESENTATION", "IC50 (nM)"],
 "data": [
  ["Oc1ccc2c(c1)COc1c-2cc2ccc(O)cc2c1-c1cc(F)cc(F)c1", 70],
  ["COc1cncc(-c2c3c(cc4ccc(O)cc24)-c2ccc(O)cc2CO3)c1", 2420]
]}

Please examine the following record next.
In: Entry N#CCc1ccc(-c2c3c(cc4ccc(O)cc24)-c2ccc(O)cc2CO3)cc1 : reported IC50 = ?
Out: 358

----------
MEASURED_ON: human ERα (Homo sapiens, UniProt P03372)
Construct: made in house; host or cells: E. coli (crude lysate)
Sequence (P03372 311-547 limits assumed): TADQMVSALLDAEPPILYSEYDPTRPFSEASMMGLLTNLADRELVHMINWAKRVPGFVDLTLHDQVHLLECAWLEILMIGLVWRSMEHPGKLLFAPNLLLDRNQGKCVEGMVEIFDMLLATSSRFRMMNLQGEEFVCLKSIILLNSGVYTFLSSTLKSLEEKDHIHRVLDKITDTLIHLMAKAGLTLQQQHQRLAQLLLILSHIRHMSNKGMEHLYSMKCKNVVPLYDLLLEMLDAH
TEST_DETAILS: Competition with [3H]-17β-estradiol for binding to ERα
CONDITION_NOTES: ligand binding domain of human ERα in E. coli crude lysate, 2 nM [3H]-17β-estradiol, 5-15 hours at room temperature; read-out: ERα (nM) IC50
ASSAY_READOUT: IC50 (nM)
Use nM as the unit, but write only the number.

Consider the reported IC50 for these molecules:
{"columns": ["MOLECULE", "U", "IC50"],
 "data": [
  ["Oc1ccc2c(c1)COc1c-2cc2ccc(O)cc2c1-c1ccccc1 [Example 23]", "nM", 137],
  ["COc1ccc(-c2c3c(cc4ccc(O)cc24)-c2ccc(O)cc2CO3)cn1 [Example 51]", "nM", 764],
  ["CCc1ccc(-c2c3c(cc4ccc(O)cc24)-c2ccc(O)cc2CO3)cc1 [Example 62]", "nM", 892]
]}

Now let's try a different one.
In: I'd like to know its IC50. The molecule in question is Oc1ccc2c(c1)COc1cc3cc(O)ccc3cc1-2 [Example 4, 5H-Dibenzo[c,g]chromene-3,9-diol]
Out: 63

----------
MEASURED_ON: human ERα (Homo sapiens)
Construct: made in house; host or cells: E. coli (crude lysate)
TEST_DETAILS: Competition with [3H]-17β-estradiol for binding to ERα
CONDITION_NOTES: ligand binding domain of human ERα in E. coli crude lysate, 2 nM [3H]-17β-estradiol, 5-15 hours at room temperature; read-out: ERα (nM) IC50
Reported values of IC50 for individual entries
State just the number; it will be interpreted in nM.

{"columns": ["MOLECULE", "MEASURED_ON", "ASSAY_READOUT", "U", "VALUE_OBSERVED"],
 "data": [
  ["Oc1ccc2c(c1)COc1c-2cc2ccc(O)cc2c1Cl [Example 12]", "human ERα (Homo sapiens)", "IC50", "nM", 15],
  ["Oc1ccc2c(c1)COc1c-2cc2ccc(O)cc2c1-c1cccnc1 [Example 50]", "human ERα (Homo sapiens)", "IC50", "nM", 1360],
  ["Oc1ccc2c(c1)COc1c-2cc2ccc(O)cc2c1-c1ccc(F)c(F)c1 [Example 36]", "human ERα (Homo sapiens)", "IC50", "nM", 206]
]}

In: For the molecule Oc1ccc2c(c1)COc1c-2cc2ccc(O)cc2c1-c1cc(Cl)cc(Cl)c1 [Example 45] , what IC50 is on record?
Out: 151

In: # query: IC50 of entry Cc1ccc(-c2c3c(cc4ccc(O)cc24)-c2ccc(O)cc2CO3)cc1C [Example 39]
Out: 608

----------
Here, each record is paired with measured IC50 data.
MEASURED_ON: human ERα (Homo sapiens, UniProt P03372)
Construct: made in house; host or cells: E. coli (crude lysate)
TEST_DETAILS: Competition with [3H]-17β-estradiol for binding to ERα
CONDITION_NOTES: ligand binding domain of human ERα in E. coli crude lysate, 2 nM [3H]-17β-estradiol, 5-15 hours at room temperature; read-out: ERα (nM) IC50
Protocol: Representative examples of the invention were evaluated for their ability to compete with 17β-estradiol for both ERα and ERβ. This test procedure provides the methodology for one to determine whether a particular compound binds to the estrogen receptor (and is therefore “estrogenic”) and whether there is selectivity for ERα or ERβ. […] After between 5 and 15 hours at room temperature, the plates were washed with DPBS/1 mM EDTA and bound radioactivity determined by liquid scintillation counting. […]
The figure you give is taken to be in nM; do not add the unit.

// below: answered compounds
{"columns": ["COMPOUND", "MEASURED_ON", "IC50 [nM]"],
 "data": [
  ["Oc1ccc2c(c1)COc1c-2cc2ccc(O)cc2c1-c1ccc(Cl)cc1", "human ERα (Homo sapiens, UniProt P03372)", 320],
  ["Oc1ccc2c(c1)COc1c-2cc2ccc(O)cc2c1-c1ncccn1", "human ERα (Homo sapiens, UniProt P03372)", 1600],
  ["CSc1ccc(-c2c3c(cc4ccc(O)cc24)-c2ccc(O)cc2CO3)cc1", "human ERα (Homo sapiens, UniProt P03372)", 804],
  ["Oc1ccc2c(c1)COc1cc3c(Cl)c(O)ccc3cc1-2", "human ERα (Homo sapiens, UniProt P03372)", 21],
  ["CC(C)(C)c1ccc(-c2c3c(cc4ccc(O)cc24)-c2ccc(O)cc2CO3)cc1", "human ERα (Homo sapiens, UniProt P03372)", 3480]
]}

In: Requested read-out: IC50. Entry: COc1cccc(-c2c3c(cc4ccc(O)cc24)-c2ccc(O)cc2CO3)c1
Out: 434

In: Please report the recorded IC50 for Oc1ccc2c(c1)COc1c-2cc2ccc(O)cc2c1-c1cccc2ccccc12 .
Out: 172

In: IC50 for N#Cc1c2c(cc3ccc(O)cc13)-c1ccc(O)cc1CO2 ?
Out: 32

In: Which IC50 value is on record for COc1c2c(c(Br)c3ccc(O)cc13)-c1ccc(O)cc1CO2 ?
Out: 12

----------
The entries below are paired with their reported IC50.
MEASURED_ON: human ERβ (Homo sapiens)
Construct: made in house; host or cells: E. coli (crude lysate)
Sequence (Q92731 264-498 limits assumed): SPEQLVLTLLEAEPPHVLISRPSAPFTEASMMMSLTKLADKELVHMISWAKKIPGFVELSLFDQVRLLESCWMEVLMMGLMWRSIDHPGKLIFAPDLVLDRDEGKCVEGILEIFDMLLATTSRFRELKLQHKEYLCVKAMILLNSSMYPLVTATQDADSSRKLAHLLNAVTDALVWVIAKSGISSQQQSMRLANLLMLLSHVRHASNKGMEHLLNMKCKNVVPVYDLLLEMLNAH
TEST_DETAILS: Competition with [3H]-17β-estradiol for binding to ERβ
CONDITION_NOTES: ligand binding domain of human ERβ in E. coli crude lysate, 2 nM [3H]-17β-estradiol, 5-15 hours at room temperature
Entry rule: numbers only, all in nM.

Recorded IC50, per entry:
{"columns": ["MOLECULE", "MEASURED_ON", "VALUE_OBSERVED"],
 "data": [
  ["Oc1ccc2c(c1)COc1c-2cc2ccc(O)cc2c1-c1cc(F)cc(F)c1 [Example 44]", "human ERβ (Homo sapiens)", 10],
  ["COc1ccc(-c2c3c(cc4ccc(O)cc24)-c2ccc(O)cc2CO3)cc1 [Example 27]", "human ERβ (Homo sapiens)", 9.8]
]}

Let's switch to this molecule now.
In: Reported IC50, molecule Oc1ccc2c(c1)COc1c-2cc2ccc(O)cc2c1-c1ccsc1 [Example 31] : ____
Out: 4.1

----------
Counter-ions that a name gives are not always drawn.
ASSAY_READOUT: melting point

{"columns": ["MOLECULE", "VALUE_OBSERVED"],
 "data": [
  ["Oc1ccc2c(c1)COc1c-2cc2ccc(O)cc2c1-c1cccc(OC(F)(F)F)c1", "110 to 112 °C"],
  ["Oc1ccc2c(c1)COc1c-2cc2ccc(O)cc2c1-c1ccccc1", "225 to 227 °C"],
  ["Oc1ccc2c(c1)COc1c-2cc2ccc(O)cc2c1-c1cccs1", "233 to 236 °C"],
  ["CC(C)(C)c1ccc(-c2c3c(cc4ccc(O)cc24)-c2ccc(O)cc2CO3)cc1", "162 to 165 °C"],
  ["COc1cccc(-c2c3c(cc4ccc(O)cc24)-c2ccc(O)cc2CO3)c1", "220 to 223 °C"],
  ["CCc1ccc(-c2c3c(cc4ccc(O)cc24)-c2ccc(O)cc2CO3)cc1", "203 to 205 °C"],
  ["Cc1cc(-c2c3c(cc4ccc(O)cc24)-c2ccc(O)cc2CO3)ccc1F", "185 to 188 °C"],
  ["Oc1ccc2c(c1)COc1c-2cc2ccc(O)cc2c1-c1ccsc1", "159 to 161 °C"]
]}

In: Quick check: melting point of Oc1ccc2c(c1)COc1cc3c(Cl)c(O)ccc3cc1-2 ?
Out: 212 to 214 °C

In: Param item = Cc1cc(C)cc(-c2c3c(cc4ccc(O)cc24)-c2ccc(O)cc2CO3)c1 ; retrieve measured melting point.
Out: 220 to 223 °C

In: Using the record for Oc1ccc2c(c1)COc1c-2cc2ccc(O)cc2c1-c1ccncc1 (as salt: HCl) , report its melting point.
Out: > 250 °C

In: GET /values?readout=melting point&item= Oc1ccc2c(c1)COc1c-2cc2ccc(O)cc2c1-c1cc(Cl)cc(Cl)c1
Out: 252 to 255 °C

Each recorded value in this set is attributed to patent US7671084B2.
